Test system: Candida parapsilosis
Test: Antifungal activity against Candida parapsilosis ATCC 22019 assessed as growth inhibition zone at 50 ug after 24 hrs by Kirby-Bauer agar diffusion assay
Format: functional
Settings: Lodderomyces parapsilosis, ATCC 22019, 24 h; read-out: IZ
parameter measured: zone of inhibition at 50 µg/disc (mm)
Just the number in mm, nothing appended.

Lab note: CO[C@H]1C(=O)N(SC)[C@H]1c1ccc(F)cc1 gave zone of inhibition at 50 µg/disc of 21

zone of inhibition at 50 µg/disc in this record for CSN1C(=O)[C@H](Oc2ccccc2)[C@@H]1CCc1ccccc1 : 14

GET /value?item= CO[C@H]1C(=O)N(SC)[C@H]1c1cccc(Br)c1 &field=zone of inhibition at 50 µg/disc returns 18

For this compound ( CO[C@H]1C(=O)N(SC)[C@H]1c1ccc(Br)cc1 ), measured zone of inhibition at 50 µg/disc is 23

zone of inhibition at 50 µg/disc recorded for this compound, CSN1C(=O)[C@H](OC(C)=O)[C@@H]1/C=C/c1ccccc1 , is 0

// CSN1C(=O)[C@H](OC(C)=O)[C@@H]1CCc1ccccc1 : zone of inhibition at 50 µg/disc value = 0

Memo: CO[C@H]1C(=O)N(SC)[C@H]1CCc1ccccc1 , reported zone of inhibition at 50 µg/disc: 14

According to the records, this compound CO[C@H]1C(=O)N(SC)[C@H]1c1ccc(I)cc1 displays zone of inhibition at 50 µg/disc of 25

Recorded result, CSN1C(=O)[C@@H](OC(C)=O)[C@H]1c1ccccc1 , zone of inhibition at 50 µg/disc: 0

// zone of inhibition at 50 µg/disc lookup, compound = CO[C@H]1C(=O)N(SC)[C@H]1c1cccc(F)c1 , result: 22

compound CSN1C(=O)[C@H](OC(C)=O)[C@@H]1c1ccccc1 , zone of inhibition at 50 µg/disc observed: 0

// zone of inhibition at 50 µg/disc lookup, compound = CO[C@H]1C(=O)N(SC)[C@H]1c1cccc(I)c1 , result: 22

So for CO[C@H]1C(=O)N(SC)[C@H]1c1cc(F)c(F)cc1F , the logged zone of inhibition at 50 µg/disc turned out to be 22

// zone of inhibition at 50 µg/disc lookup, compound = CSN1C(=O)[C@H](Oc2ccccc2)[C@@H]1/C=C/c1ccccc1 , result: 0

// field: zone of inhibition at 50 µg/disc; key: CO[C@H]1C(=O)N(SC)[C@H]1c1cc(Cl)cc(Cl)c1Cl ; value = 26

The recorded zone of inhibition at 50 µg/disc for CO[C@H]1C(=O)N(SC)[C@H]1c1cc(F)cc(F)c1F is 22

For record CO[C@H]1C(=O)N(SC)[C@H]1c1cccc(Cl)c1 the listed zone of inhibition at 50 µg/disc is 28

zone of inhibition at 50 µg/disc reading for CO[C@H]1C(=O)N(SC)[C@H]1c1ccccc1F : 19

Input CO[C@H]1C(=O)N(SC)[C@H]1c1ccccc1Br . Output zone of inhibition at 50 µg/disc: 40

GET /value?item= CO[C@H]1C(=O)N(SC)[C@H]1c1ccccc1I &field=zone of inhibition at 50 µg/disc returns 22

Reported zone of inhibition at 50 µg/disc of CO[C@H]1C(=O)N(SC)[C@H]1c1ccc(Cl)cc1Cl : 31

zone of inhibition at 50 µg/disc recorded for this compound, CO[C@H]1C(=O)N(SC)[C@H]1c1ccc(Cl)cc1 , is 0

Entry CO[C@H]1C(=O)N(SC)[C@H]1/C=C/c1ccccc1 , zone of inhibition at 50 µg/disc reported as 13

# compound CCC(C)SN1C(=O)[C@H](OC)[C@@H]1c1ccccc1Cl (stereo partly specified) ; its zone of inhibition at 50 µg/disc = 0

Record summary for CO[C@H]1C(=O)N(SC)[C@H]1c1ccccc1Cl : reported zone of inhibition at 50 µg/disc = 33

Lab book: zone of inhibition at 50 µg/disc of CO[C@H]1C(=O)N(SC)[C@H]1c1cc(F)c(F)c(F)c1 noted as 34
